The reported measurements were obtained from a collection of fitness landscapes (doi:10.1126/science.1257360).

Reported enrichment ratio values are given for each entry in this list.
B1: PhoQ; a variant is named by its letters at X, in order, P23837 (parent)
chain: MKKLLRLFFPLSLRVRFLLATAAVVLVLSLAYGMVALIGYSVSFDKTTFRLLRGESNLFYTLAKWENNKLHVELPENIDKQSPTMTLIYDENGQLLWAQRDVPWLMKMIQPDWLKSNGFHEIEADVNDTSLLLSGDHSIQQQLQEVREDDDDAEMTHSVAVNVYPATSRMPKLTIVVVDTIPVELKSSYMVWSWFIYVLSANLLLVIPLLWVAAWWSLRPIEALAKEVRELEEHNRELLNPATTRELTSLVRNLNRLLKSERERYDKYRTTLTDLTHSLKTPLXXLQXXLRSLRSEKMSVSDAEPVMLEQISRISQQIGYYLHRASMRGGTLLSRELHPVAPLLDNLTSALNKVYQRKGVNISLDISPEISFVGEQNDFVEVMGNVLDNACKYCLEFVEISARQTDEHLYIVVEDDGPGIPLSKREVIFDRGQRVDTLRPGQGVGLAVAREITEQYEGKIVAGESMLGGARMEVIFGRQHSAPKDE

Variants of: B1
protocol.details: enrichment ratio after two sorts for PhoP signalling (ratio (wild type AVST 3.29)); higher = more functional
protocol.conditions: with PhoP (E. coli)
Whole data set: some 140,000 sequences, median “enrichment ratio after two sorts for PhoP signalling” near 0, cut for the highest 2% near 11. This is one part of a sample in which the highest values are shown more often than they occur.
measurement.label: enrichment ratio

[
  {
    "variant.identifier": "VSHV",
    "measurement.label": "enrichment ratio",
    "value.observed": "≤ 0.25"
  },
  {
    "variant.identifier": "KLTI",
    "measurement.label": "enrichment ratio",
    "value.observed": "≤ 0.25"
  },
  {
    "variant.identifier": "AVVG",
    "measurement.label": "enrichment ratio",
    "value.observed": 11.2
  },
  {
    "variant.identifier": "AVTG",
    "measurement.label": "enrichment ratio",
    "value.observed": 11.3
  },
  {
    "variant.identifier": "AVCA",
    "measurement.label": "enrichment ratio",
    "value.observed": 6.97
  },
  {
    "variant.identifier": "ELDY",
    "measurement.label": "enrichment ratio",
    "value.observed": "≤ 0.25"
  },
  {
    "variant.identifier": "PWHF",
    "measurement.label": "enrichment ratio",
    "value.observed": "≤ 0.25"
  },
  {
    "variant.identifier": "NVIN",
    "measurement.label": "enrichment ratio",
    "value.observed": "≤ 0.25"
  },
  {
    "variant.identifier": "AVSI",
    "measurement.label": "enrichment ratio",
    "value.observed": 13.1
  },
  {
    "variant.identifier": "TSTL",
    "measurement.label": "enrichment ratio",
    "value.observed": 20.7
  },
  {
    "variant.identifier": "AVMG",
    "measurement.label": "enrichment ratio",
    "value.observed": 2.13
  },
  {
    "variant.identifier": "SVER",
    "measurement.label": "enrichment ratio",
    "value.observed": "≤ 0.25"
  },
  {
    "variant.identifier": "TGHV",
    "measurement.label": "enrichment ratio",
    "value.observed": 16.1
  },
  {
    "variant.identifier": "RHGY",
    "measurement.label": "enrichment ratio",
    "value.observed": "≤ 0.25"
  },
  {
    "variant.identifier": "RGHV",
    "measurement.label": "enrichment ratio",
    "value.observed": "≤ 0.25"
  },
  {
    "variant.identifier": "WHGQ",
    "measurement.label": "enrichment ratio",
    "value.observed": "≤ 0.25"
  },
  {
    "variant.identifier": "SVFT",
    "measurement.label": "enrichment ratio",
    "value.observed": "≤ 0.25"
  },
  {
    "variant.identifier": "MKHE",
    "measurement.label": "enrichment ratio",
    "value.observed": "≤ 0.25"
  },
  {
    "variant.identifier": "ACCP",
    "measurement.label": "enrichment ratio",
    "value.observed": "≤ 0.25"
  },
  {
    "variant.identifier": "AVDH",
    "measurement.label": "enrichment ratio",
    "value.observed": "≤ 0.25"
  },
  {
    "variant.identifier": "PSPG",
    "measurement.label": "enrichment ratio",
    "value.observed": "≤ 0.25"
  },
  {
    "variant.identifier": "WCMF",
    "measurement.label": "enrichment ratio",
    "value.observed": "≤ 0.25"
  }
]
